- Tested on: Plasmodium falciparum
- protocolText: Inhibition of hydrogen peroxide-mediated haem detoxification in Plasmodium falciparum
- Assay type: functional, organism-based
experimentalEndpoint: pIC50
As a rule, pIC50 stands for the negative log10 of the concentration, concentration in M.

CCN(CC)CCCC(C)Nc1cc(CCCCCCCCCCCCc2cc(NC(C)CCCN(CC)CC)c3ccccc3n2)nc2ccccc12 (centres undefined) = 4.43

Can you look up the measured pIC50 of CCN(CC)CCCC(C)Nc1cc(CCCCCCCCc2cc(NC(C)CCCN(CC)CC)c3ccccc3n2)nc2ccccc12 (centres undefined) for me?
4.09

# get_value(readout='pIC50', item= CCN(CC)CCCC(C)Nc1cc(CCCCCCCCCCc2cc(NC(C)CCCN(CC)CC)c3ccccc3n2)nc2ccccc12 (centres undefined) )
4.10

Would you kindly share the measured pIC50 for OC(c1cc(C(F)(F)F)nc2c(C(F)(F)F)cccc12)C1CCCCN1 (centres undefined) ?
4.52

The reported measurements were obtained from ChEMBL document CHEMBL1133897.
